These data points were gathered from patent US20080103191A1.

test_method_notes: Log D (pH 7.4) by isocratic HPLC
Type: physicochemical
details: YMC Pro C18 column, phosphate buffer pH 7.4/acetonitrile 45/55
Please use fulfilled whenever chromatographic logD is not below 2, and not fulfilled whenever it is.

1. CCN(CC)C(=O)/C(C#N)=C/c1cc(OC(=O)OC2CCCCC2)c(O)c([N+](=O)[O-])c1 | not fulfilled
2. CCCC(C)OC(=O)Oc1cc(/C=C(\C#N)C(=O)N(CC)CC)cc([N+](=O)[O-])c1O (stereo not drawn) | not fulfilled
3. CCN(CC)C(=O)/C(C#N)=C/c1cc(OC(=O)OCC2CCCCC2)c(O)c([N+](=O)[O-])c1 | fulfilled
4. CCN(CC)C(=O)/C(C#N)=C/c1cc(OC(=O)OC(C)c2ccccc2)c(O)c([N+](=O)[O-])c1 (stereo not drawn) | fulfilled
5. CCN(CC)C(=O)/C(C#N)=C/c1cc(OC(=O)OCCc2cccs2)c(O)c([N+](=O)[O-])c1 | not fulfilled
6. C#CCCOC(=O)Oc1cc(/C=C(\C#N)C(=O)N(CC)CC)cc([N+](=O)[O-])c1O | not fulfilled

###

test_method_notes: Chemical hydrolysis stability at pH 1 and pH 7.4 (HPLC)
Format: physicochemical
details: pH 1; 0.1 N HCl, 37° C., over 12 h; read-out: t1/2 at pH 1 (converted)
# thresholds on half-life define classes: lower level: < 10 h; middle level: ≥ 10 h and < 20 h; upper level: ≥ 20 h

1) CCN(CC)C(=O)/C(C#N)=C/c1cc(OC(=O)OC2CCCCC2)c(O)c([N+](=O)[O-])c1 | lower level
2) C=CCOC(=O)Oc1cc(/C=C(\C#N)C(=O)N(CC)CC)cc([N+](=O)[O-])c1O | middle level
3) CCOC(=O)Oc1cc(/C=C(\C#N)C(=O)N(CC)CC)cc([N+](=O)[O-])c1O | upper level
4) CCCOC(=O)Oc1cc(/C=C(\C#N)C(=O)N(CC)CC)cc([N+](=O)[O-])c1O | upper level
5) CCN(CC)CCOC(=O)Oc1cc(/C=C(\C#N)C(=O)N(CC)CC)cc([N+](=O)[O-])c1O | lower level
6) CCN(CC)C(=O)/C(C#N)=C/c1cc(OC(=O)OCc2ccccc2)c(O)c([N+](=O)[O-])c1 | lower level
7) CCC(CC)OC(=O)Oc1cc(/C=C(\C#N)C(=O)N(CC)CC)cc([N+](=O)[O-])c1O | upper level
8) CCN(CC)C(=O)/C(C#N)=C/c1cc(OC(=O)OCc2ccc3c(c2)OCO3)c(O)c([N+](=O)[O-])c1 | middle level
9) CCCCCCCCOC(=O)Oc1cc(/C=C(\C#N)C(=O)N(CC)CC)cc([N+](=O)[O-])c1O | middle level
10) CCN(CC)C(=O)/C(C#N)=C/c1cc(OC(=O)OCc2ccc([N+](=O)[O-])cc2)c(O)c([N+](=O)[O-])c1 | lower level
11) CCCC(C)OC(=O)Oc1cc(/C=C(\C#N)C(=O)N(CC)CC)cc([N+](=O)[O-])c1O (stereo not shown) | upper level
12) CCN(CC)C(=O)/C(C#N)=C/c1cc(OC(=O)OCC2CCCCC2)c(O)c([N+](=O)[O-])c1 | middle level
13) CCCCC(CC)COC(=O)Oc1cc(/C=C(\C#N)C(=O)N(CC)CC)cc([N+](=O)[O-])c1O (stereo not shown) | middle level
